# System: Rattus norvegicus
# test: Clearance in rat at 10 mg/kg, sc
# Format: ADME, organism-based
# Design: dose 10 mg/kg, route subcutaneous
# applied conditions: in vivo
endpoint label: clearance (mL/min/kg)
The answer is to be given in mL/min/kg; state only the numeric part.

Input line: Entry `CN1CCN(C(=O)c2nc3cc(Cl)ccc3[nH]2)CC1` needs its clearance filled in; supply it.
Output line: 700

====

# test: Volume of distribution in rat at 1 mg/kg, iv
# Assay type: ADME, organism-based
# Parameters: dose 1 mg/kg, route intravenous
# applied conditions: in vivo
endpoint label: Vd (L/kg)
Express your answer in L/kg, writing the number without its unit.

Input line: Provide only the value of recorded Vd for `CN1C[C@@H]2CN(C(=O)c3nc4cc(F)ccc4[nH]3)C[C@@H]2C1`
Output line: 6.1

Input line: Give recorded Vd. `CN1C[C@@H]2CN(C(=N)c3nc4cc(F)c(F)cc4[nH]3)C[C@@H]2C1`
Output line: 48
